Source: patent US20050171094A1

MEASURED TARGET: recombinant human GSK-3β (Homo sapiens)
Sequence (P49841 whole entry): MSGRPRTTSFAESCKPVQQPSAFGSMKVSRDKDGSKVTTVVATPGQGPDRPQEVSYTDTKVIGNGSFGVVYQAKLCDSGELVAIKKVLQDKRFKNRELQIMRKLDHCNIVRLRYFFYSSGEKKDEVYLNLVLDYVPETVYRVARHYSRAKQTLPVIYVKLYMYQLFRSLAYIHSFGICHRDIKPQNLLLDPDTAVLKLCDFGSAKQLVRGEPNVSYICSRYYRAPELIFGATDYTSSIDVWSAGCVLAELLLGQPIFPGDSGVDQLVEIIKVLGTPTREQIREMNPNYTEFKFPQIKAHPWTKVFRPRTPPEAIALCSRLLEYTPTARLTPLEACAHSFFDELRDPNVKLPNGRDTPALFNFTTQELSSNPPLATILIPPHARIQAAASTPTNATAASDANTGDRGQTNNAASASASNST
TEST SUMMARY: Determination of inhibition of GSK-3 enzyme activity
Format: biochemical
ASSAY SETUP: phospho-glycogen synthase peptide-2 substrate, [γ-33P]ATP; IC50 class printed in nM; read-out: GSK-3 enzyme-inhibiting activity (IC50 value)

[
  {
    "MOLECULE": "N#Cc1c2n(c3c(=S)[nH]cnc13)CCN(C(=O)Nc1cccc(C(=O)O)c1)CC2 [Compound No. 792]",
    "IC50": "< 50 nM"
  }
]
